# System: MS2 coat protein
# Assay protocol: apparent KD of MS2 coat protein; designed switch direction (-1 OFF switch, 1 ON switch): -1; higher = weaker reporter binding
# Measurement setup: input ligand: FMN 200 uM
Each item that follows carries a reported apparent KD of MS2 coat protein.
Metric name: apparent KD of MS2 coat protein (nM)

[[record]]
query_sequence = "UGUGUACAUGAGGAUCACCCAUGUCAGGAUAUCUAGGCUCUCUCACUGACAACAGCCAAGAGAAGGGACGAGGU [EX1 B.7] (Eterna round: R97, puzzle: Exclusion 1)"
target = "MS2 coat protein"
test_value = 36.3

[[record]]
query_sequence = "GAAAACGAAGAGGAUAUUUGAUAUCAAAGCUUCAAAGAAGGCUUCACAUGAGGAUCACCCAUGUGAUCUUCAAU [Mat - Exclusion 6 - JL Mod - D15] (Eterna round: R97, puzzle: Exclusion 6)"
target = "MS2 coat protein"
test_value = 212

[[record]]
query_sequence = "UUUUACAUAGGAUAUAGUUGCUUUUACAUGAGGAUCACCCAUGUCUCUCCUCUCUCUCUUCUAGAAGGAUGUUUCU [JR_E5_Sub011] (Eterna round: R96, puzzle: Exclusion 5)"
target = "MS2 coat protein"
test_value = 55.3

[[record]]
query_sequence = "CUUUCGUGAGGAUAUGUGGCUUCGAAAAUGAGAUCGAGGCUACAGAAGGCACAUGAGGAUCACCCAUGUUCCUC [salish99_ex4_r4_215] (Eterna round: R97, puzzle: Exclusion 4)"
target = "MS2 coat protein"
test_value = 400

[[record]]
query_sequence = "GAGACAUGAGGAUCACCCAUGUGUGGUCCAAGGCAUGUCGUCGAGGAUAUGCAGGACGUCGUCUUGCAGAAGGCGACUAAAUAC [Teatarti] (Eterna round: R96, puzzle: Exclusion NG 3)"
target = "MS2 coat protein"
test_value = 17.8

[[record]]
query_sequence = "GUAAACGUAUAGGAUAUUUCAGGUCAAAGCUGCAAAGAAGGAUGCACAUGAGGAUCACCCAUGUGGUCAAUAAA [Mod of Quesina 24 - Jieux - Exclusion 6] (Eterna round: R97, puzzle: Exclusion 6)"
target = "MS2 coat protein"
test_value = 25.7

[[record]]
query_sequence = "GCCUACCAGCUAGGAUAUGCAGUACAGUAAAAUGUAGAAGGAGCACGAUCCAGACAUGAGGAUCACCCAUGUGGGCGGCAGGCA [Raartive] (Eterna round: R96, puzzle: Exclusion NG 1)"
target = "MS2 coat protein"
test_value = 19.7

[[record]]
query_sequence = "UUAGAUAGGUCAGGAUAUCGAUGAUUGAAUUGUAUGAUUUACAUGAGGAUCACCCAUGUUUUGUACGAGAAGGGACGUUAGUUU [JR_ExcNG2_Sub019] (Eterna round: R96, puzzle: Exclusion NG 2)"
target = "MS2 coat protein"
test_value = 25.3

[[record]]
query_sequence = "ACCGAACAUGAGGAUCACCCAUGUAAGGAUAUCCGUGGACAGCGCCAAAGUUACCGGCGGAGAAGGUGCAUGGU (Eterna round: R97, puzzle: Exclusion 1)"
target = "MS2 coat protein"
test_value = 24.6

[[record]]
query_sequence = "AAACGCCGAGGAUAUACCCAACCAGUCCUCUAAAGAAGAAAACAUGAGGAUCACCCAUGUAGAAGGCGGUGCAA [Anorti] (Eterna round: R97, puzzle: Exclusion 2)"
target = "MS2 coat protein"
test_value = 51.8

[[record]]
query_sequence = "CUCAUUUGUCAGGAUAUCGUGUGGCUAAUUGUACGAGAAGGGACGACAUGAGGAUCACCCAUGUGGUCUUUGAG [JR_Ex6_Sub083] (Eterna round: R97, puzzle: Exclusion 6)"
target = "MS2 coat protein"
test_value = 196

[[record]]
query_sequence = "UGUUGUCGCGUAGGAUAUGAGGAUCACCCAUAUAGAGGAUAUGAAAAGAAGGCUCUGAGGAUCACCCAGAAGGACGGGACAACU [pwkr exNG2 2xF5 2xFMN.24] (Eterna round: R96, puzzle: Exclusion NG 2)"
target = "MS2 coat protein"
test_value = 1720

[[record]]
query_sequence = "CUUAAAAGGAAGGAUAUGCUAGACGAAAGUCUAGCAGAAGGUCCUACAUGAGGAUCACCCAUGUGUCCUAUAAG [Mat - Exclusion 6 - Eli Mod - D13] (Eterna round: R97, puzzle: Exclusion 6)"
target = "MS2 coat protein"
test_value = 72.4

[[record]]
query_sequence = "GAACCAUGAGGAUAUUCUGAUCCUAACAUGAGGAUCACCCAUGUGAGUACAAAAGUACUCGAAGAAGGCAUGGUUC [Omei Ex5 B2] (Eterna round: R97, puzzle: Exclusion 5)"
target = "MS2 coat protein"
test_value = 819

[[record]]
query_sequence = "GGUCGACAUGAGGAUCACCCAUGUUAGGAUAUUAGCCAAUGGUCUCGUUAUGAGUCAUUAAGAAGGAACAUGCU [Eternabot (L1) Solution 37] (Eterna round: R97, puzzle: Exclusion 1)"
target = "MS2 coat protein"
test_value = 18

[[record]]
query_sequence = "UGCUACGGAGGAUAUACAUGAGGAUCACCCAUGUGAGAGAUUUAGCCGAGAGGCUAGUGUAGAAGGCCGUAGCU [jl-ex3-4.17 jl mod] (Eterna round: R97, puzzle: Exclusion 3)"
target = "MS2 coat protein"
test_value = 400

[[record]]
query_sequence = "ACAAGCUCUGUGGGUGGUGACAUGAGGAUCACCCAUGUUUUGCUCGUCUUGUCCCGGGCCCGGCGCCCGGGCCCGGG [-40.4, -69.3, A 12%] (Eterna round: R97, puzzle: Sensor, turn-off variant 1)"
target = "MS2 coat protein"
test_value = 625

[[record]]
query_sequence = "GCACGGAGUGUAGGAUAUCUGUGCGAUUAGCUCAGAGAAGGACACAUGAGGAUCACCCAUGUGUAACUCAACAAUAAUCCGUGC [Eli exng1 - 073] (Eterna round: R96, puzzle: Exclusion NG 1)"
target = "MS2 coat protein"
test_value = 18.3

[[record]]
query_sequence = "GGAGCUGGAGGAUAUACAAGAUCGAAAGAUCAAAGAUCCGUACAUGAGGAUCACCCAUGUAGAAGGCCAGCUCC (Eterna round: R97, puzzle: Exclusion 2)"
target = "MS2 coat protein"
test_value = 763

